Molecular target: T1, mouse tissue factor pathway inhibitor (TFPI) (mouse, UniProt O54819 29-289, limits assumed)
T1 construct: bought; also called mTFPI; murine TFPI
T1 sequence (looked up): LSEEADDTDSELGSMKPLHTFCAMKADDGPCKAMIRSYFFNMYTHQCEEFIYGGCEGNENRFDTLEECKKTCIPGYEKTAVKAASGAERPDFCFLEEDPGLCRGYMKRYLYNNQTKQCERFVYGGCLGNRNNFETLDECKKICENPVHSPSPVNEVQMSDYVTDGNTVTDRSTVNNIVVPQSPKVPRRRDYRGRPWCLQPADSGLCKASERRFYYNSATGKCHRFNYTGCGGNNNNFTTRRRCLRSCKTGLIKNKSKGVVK
Experiment: competitive ELISA
As shown below, each of these binders has a reported variant/HC_D62R value.
Your answer should be a plain number; it is taken to be in ratio.

>>> testvalue("4B7 HC D62Q+H107M+Y112D/LC D33F+N35I (Fab, V domains shown) VH: QVQLQQSGPGLVKPSQTLSLTCAISGDSVSSNSAAWSWIRQSPGRGLEWLGIIYKRSKWYNQYAVSVKSRITINPDTSKNQFSLQLNSVTPEDTAVYYCARWHSDKMWGFDDWGQGTLVTVSS VL: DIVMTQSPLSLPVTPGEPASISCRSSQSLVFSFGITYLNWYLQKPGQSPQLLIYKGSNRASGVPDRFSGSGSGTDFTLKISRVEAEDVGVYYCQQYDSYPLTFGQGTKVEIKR")
31.7

Please turn your attention to the following entry.
Fill in the blank: the reported variant/HC_D62R of B27.1 (4B7 HC N32D+D62R+Y112D/LC N35T+D97T) (Fab, V domains shown) VH: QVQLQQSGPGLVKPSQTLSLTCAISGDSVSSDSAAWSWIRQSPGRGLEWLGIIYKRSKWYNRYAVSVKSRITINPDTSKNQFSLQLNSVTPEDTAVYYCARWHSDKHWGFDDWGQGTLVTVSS VL: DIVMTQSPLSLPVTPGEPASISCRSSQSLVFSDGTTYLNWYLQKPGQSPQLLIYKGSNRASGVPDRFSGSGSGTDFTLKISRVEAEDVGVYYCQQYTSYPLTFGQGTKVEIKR is ____.
9.5

The values you see were collected from patent USRE47150.
